biological target: Human complement C1s enzyme (Homo sapiens, UniProt P09871); construct: purified from human serum, Complement Technology, Inc; experiment: Human C1s enzyme assay; conditions: human complement C1s enzyme 1.16 nM, substrate Z-L-Lys-SBzl, A405; read-out: IC50 (Stars)
readout: IC50

Give its IC50 value. Item: C[C@@H](Nc1cnc(N2CCCCCC2)n(CC(=O)NCc2cc3cnccc3[nH]2)c1=O)c1ccc2oc3ccccc3c2c1 [Compound 388] 100 to 1000 nM

Returns the measured IC50 for the input molecule. Input: C[C@@H](Nc1cnc(-c2ccccc2)n(CC(=O)NCc2cc3cnccc3[nH]2)c1=O)c1ccc2oc3ccccc3c2c1 [Compound 126] < 100 nM

What IC50 value was documented for this molecule, C[C@@H](Nc1cnc(N2CCNCC2)n(CC(=O)NCc2cc3cnccc3[nH]2)c1=O)c1ccc2oc3ccccc3c2c1 [Compound 376] ? < 100 nM

What measured IC50 goes with O=C(Cn1c(-c2ccccc2F)ncc(N[C@H](CF)c2ccc3oc4ccccc4c3c2)c1=O)NCc1cc2cnccc2[nH]1 (single isomer, unassigned) [Compound 375] ? < 100 nM

Requested field: IC50. Item: O=C(Cn1c(-c2ccccc2)ncc(NC(=O)c2csc(-c3ccccc3)n2)c1=O)NCc1cc2cnccc2[nH]1 [Compound 209] < 100 nM

Which IC50 reading was recorded for the molecule O=C(Cn1c(-c2ccccc2)ncc(NCCCOc2ccccc2)c1=O)NCc1cc2cnccc2[nH]1 [Compound 7] ? < 100 nM

Can you look up the measured IC50 of COc1c(NC(=O)c2ccc(-c3ccccc3)s2)ccc(-c2ccccc2)c1CC(=O)NCc1cc2cnccc2[nH]1 [Compound 129] for me? > 1000 nM

* * *

molecular target: Human complement C1s enzyme (Homo sapiens); construct: purified from human serum, Complement Technology, Inc; experiment: Human C1s enzyme assay; settings: human complement C1s enzyme 1.16 nM, substrate Z-L-Lys-SBzl, A405; read-out: IC50 (Stars)
pIC50: −log10 of the molar value.
Provide the recorded pIC50 for the entries that follow.

Could you tell me which pIC50 is on file for O=C(Cn1c(-c2ccc(S(F)(F)(F)(F)F)cc2)ncc(NCc2ccc3oc4ccccc4c3c2)c1=O)NCc1cc2cnccc2[nH]1 ? > 7.00

# get_value(readout='pIC50', item= C[C@@H](Nc1cnc(N2C[C@H]3C[C@@H](C2)C3)n(CC(=O)NCc2cc3cnccc3[nH]2)c1=O)c1ccc2oc3ccccc3c2c1 ) 6.00 to 7.00

Consider the compound C[C@@H](Nc1cnc(-c2ccccc2F)n(CC(=O)NCc2cc3cnccc3[nH]2)c1=O)c1ccc2oc3c(F)cccc3c2c1 and give its measured pIC50. > 7.00

# input compound: C[C@H](Nc1cnc(-c2ccccc2)n(CC(=O)NCc2cc3cnccc3[nH]2)c1=O)c1ccc(-c2ccccc2)cc1 ; wanted: its pIC50 > 7.00

Request the reported pIC50 associated with O=C(Cn1c(-c2ccccc2)ncc(NC(=O)c2ccc3c(c2)C(F)(F)c2ccccc2-3)c1=O)NCc1cc2cnccc2[nH]1 > 7.00

Which value of pIC50 has been reported for C[C@@H](Nc1cnc(N2CCCCC2)n(CC(=O)NCc2cc3cnccc3[nH]2)c1=O)c1ccc(-c2ccccc2)s1 in the records? > 7.00

* * *

Target: Human complement C1s enzyme (Homo sapiens, UniProt P09871)
Construct: purified from human serum, Complement Technology, Inc
Sequence (P09871 438-688 limits assumed): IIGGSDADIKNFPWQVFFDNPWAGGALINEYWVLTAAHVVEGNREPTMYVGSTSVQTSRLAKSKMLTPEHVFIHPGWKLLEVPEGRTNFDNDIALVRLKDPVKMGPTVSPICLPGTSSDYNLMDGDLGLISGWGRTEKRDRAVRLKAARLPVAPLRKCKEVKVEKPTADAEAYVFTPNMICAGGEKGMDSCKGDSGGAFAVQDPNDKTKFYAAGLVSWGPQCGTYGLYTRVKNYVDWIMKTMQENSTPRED
Sequence (P09871 16-437 partner limits assumed): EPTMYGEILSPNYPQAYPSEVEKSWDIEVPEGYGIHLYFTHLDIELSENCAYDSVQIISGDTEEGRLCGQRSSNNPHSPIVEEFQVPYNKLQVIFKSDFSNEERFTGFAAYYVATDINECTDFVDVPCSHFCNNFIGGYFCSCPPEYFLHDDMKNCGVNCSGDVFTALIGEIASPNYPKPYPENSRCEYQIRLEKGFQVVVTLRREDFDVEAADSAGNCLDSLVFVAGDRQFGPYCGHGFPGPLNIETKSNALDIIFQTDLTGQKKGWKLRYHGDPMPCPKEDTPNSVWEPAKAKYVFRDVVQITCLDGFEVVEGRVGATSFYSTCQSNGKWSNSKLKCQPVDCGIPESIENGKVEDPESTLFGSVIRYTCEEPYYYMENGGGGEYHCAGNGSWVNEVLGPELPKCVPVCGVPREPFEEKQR
Experiment: Human C1s enzyme assay
Settings: human complement C1s enzyme 1.16 nM, substrate Z-L-Lys-SBzl, A405; read-out: IC50 (Stars)
pIC50: −log10 of the molar value.
readout: pIC50

Query (molecule): C[C@@H](Nc1ncc(-c2ccccc2)n(CC(=O)NCc2cc3cnccc3[nH]2)c1=O)c1ccc2oc3ccccc3c2c1 [Compound 348] ; field requested: pIC50 > 7.00

Query (molecule): O=C(Cn1c(-c2ccccc2)ncc(NC(=O)c2noc(-c3ccccc3)n2)c1=O)NCc1cc2cnccc2[nH]1 [Compound 219] ; field requested: pIC50 > 7.00

Dear colleague, I am looking for the recorded pIC50 of the following molecule: O=C(Cn1c(-c2ccccc2)ncc(NC(=O)c2ccc(-n3cccc3)cc2)c1=O)NCc1cc2cnccc2[nH]1 [Compound 59] > 7.00

Item C[C@@H]1CN(c2ncc(N[C@H](C)c3ccc4oc5ccccc5c4c3)c(=O)n2CC(=O)NCc2cc3cnccc3[nH]2)CCO1 [Compound 304] has what recorded pIC50? 6.00 to 7.00

Suppose we examine the molecule C[C@H](NC(=O)Cn1c(-c2ccccc2)ncc(N[C@H](C)c2ccc3oc4ccccc4c3c2)c1=O)c1cc2cnccc2[nH]1 [Compound 239] ; what pIC50 value has been reported? < 6.00

# input molecule: O=C(Cn1c(-c2ccccc2)ncc(NCc2ccc3oc4ccccc4c3c2)c1=O)NCc1cc2c(s1)CCNC2 [Compound 142] ; wanted: its pIC50 > 7.00

pIC50 lookup needed for C[C@H](Nc1nccn(CC(=O)NCc2cc3cnccc3[nH]2)c1=O)c1ccc2oc3ccccc3c2c1 [Compound 299] , thanks. > 7.00
